Reported pIC50 is given for each of the following compounds.
- testedOn: full-length human PRMT8 isoform 1 (Homo sapiens)
- Sequence (Q9NR22 whole entry, canonical isoform): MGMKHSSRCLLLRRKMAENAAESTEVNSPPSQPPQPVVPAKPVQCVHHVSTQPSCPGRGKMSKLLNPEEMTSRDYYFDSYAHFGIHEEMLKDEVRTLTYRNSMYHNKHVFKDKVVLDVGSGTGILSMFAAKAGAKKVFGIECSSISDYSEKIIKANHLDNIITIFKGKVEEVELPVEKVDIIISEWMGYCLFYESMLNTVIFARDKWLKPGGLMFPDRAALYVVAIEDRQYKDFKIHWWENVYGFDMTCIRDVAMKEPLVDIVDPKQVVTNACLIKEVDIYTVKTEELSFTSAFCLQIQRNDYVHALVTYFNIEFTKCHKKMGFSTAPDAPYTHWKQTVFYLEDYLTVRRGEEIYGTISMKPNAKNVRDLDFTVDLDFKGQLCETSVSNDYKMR
- assay: PRMT8 Biochemical Assay (3H-SAM Flashplate, peptide substrate)
- experimentalParameters: single experiment or average of multiple experiments; read-out: Biochemical IC50 PRMT8
pIC50: −log10 of the molar value.

| compound | operator | pIC50 |
| --- | --- | --- |
| CCC(=O)N(CCOc1ccccc1)[C@H]1CC[C@H](c2n[nH]cc2CN(C)CCNC)CC1 | = | 7.81 |
| CNCCN(C)Cc1c[nH]nc1C1CCC2(CCCCC2)CC1 | = | 8.21 |
| CNCCN(C)Cc1c[nH]nc1C1CCC2(CCNC2=O)CC1 (stereo not drawn) | = | 7.54 |
| CNCCN(C)Cc1cnn(C)c1[C@H]1CC[C@]2(CC1)CC(C)(C)CO2 | = | 7.51 |
| CNCCN(C)Cc1c[nH]nc1C1CC(C)OC(C)C1 (stereo not drawn) | = | 7.24 |
| CN(CCN)Cc1c[nH]nc1C1CCCC1 | = | 5.94 |
| CNCCN(C)Cc1c[nH]nc1[C@H]1CC[C@]2(CCCO2)OC1 | ≤ | 5.00 |
| CNCCN(C)Cc1c[nH]nc1[C@H]1CCC(C)(C)[C@@H](C(=O)NCCCOC)C1 | = | 6.69 |
| CCOCC1CC(COCC)CC(c2n[nH]cc2CN(C)CCNC)C1 (stereo not drawn) | = | 6.14 |
| CCCOC1CC(OCCC)CC(c2n[nH]cc2CN(C)CCNC)C1 (stereo not drawn) | = | 5.71 |
| CNCCN(C)Cc1c[nH]nc1C1CCC(CCOC)CC1 (stereo not drawn) | = | 7.61 |
| CNCCN(C)Cc1c[nH]nc1[C@H]1CC[C@H](N(CCC(C)C)C(=O)CCOC)CC1 | = | 7.24 |
| CNCCN(C)Cc1c[nH]nc1C1CCC(=O)N(Cc2ccc(C(F)(F)F)cc2)C1 (stereo not drawn) | = | 6.82 |
| CNCCN(C)Cc1c[nH]nc1[C@H]1CC[C@@H](N(CCOc2ccccc2)C(=O)CCOC)CC1 | = | 7.17 |
| CNCCN(C)Cc1c[nH]nc1[C@H]1CC[C@H](COC)CC1 | = | 7.89 |
| Cc1n[nH]cc1CN(C)CCN | < | 5.00 |
| CC(C)Cc1n[nH]cc1CN(C)CCN | = | 5.77 |
| CN(CCN)Cc1c[nH]nc1C1=CCOCC1 | = | 5.72 |
| CCN(C(=O)CCOc1ccccc1)[C@H]1CC[C@H](c2n[nH]cc2CN(C)CCNC)CC1 | = | 7.86 |
| CNCCN(C)Cc1c[nH]nc1C1CCC(=O)N(Cc2ccccc2)C1 (stereo not drawn) | = | 6.71 |
| CNCCN(C)Cc1c[nH]nc1C1CCC2(CCOC2)CC1 (stereo not drawn) | = | 7.61 |
| CNCCN(C)Cc1c[nH]nc1[C@H]1CC[C@H](C(=O)N(C)CCC(C)C)CC1 | = | 7.36 |
| CNCCN(C)Cc1c[nH]nc1C1CCC(C)(C)[C@H](C(=O)NCCCOC)C1 (stereo partly drawn) | = | 6.77 |
| CNCCN(C)Cc1c[nH]nc1[C@H]1CC[C@@H](N(CCCOC)C(=O)CCOc2ccccc2)CC1 | = | 7.62 |
| CNCCN(C)Cc1c[nH]nc1C1CCC2(CC1)OCCO2 | = | 6.82 |
| CCN1C(=O)N(C)CC12CCC(c1n[nH]cc1CN(C)CCNC)CC2 (stereo not drawn) | = | 7.03 |
| CN(CCN)Cc1c[nH]nc1/C=C/c1cc(F)cc(F)c1 | = | 6.15 |
| CNCCN(C)Cc1c[nH]nc1C1CCC(COC)(COC)CC1 | = | 7.52 |
| CNCCN(C)Cc1c[nH]nc1[C@H]1CC[C@]2(CCOC2(C)C)CC1 | = | 7.93 |
| CNCCN(C)Cc1c[nH]nc1[C@H]1CC[C@@H](N(CC2CCOCC2)C(=O)CC(C)C)CC1 | = | 7.26 |
| CNCCN(C)Cc1c[nH]nc1[C@H]1CC[C@@]2(CCOC2(C)C)CC1 | = | 7.84 |
| CN(CCN)Cc1c[nH]nc1C(C)(C)C | < | 5.00 |
| CNCCN(C)Cc1c[nH]nc1[C@H]1CC[C@@]2(CCN(CC(C)C)C2=O)CC1 | = | 7.08 |
| CNCCN(C)Cc1c[nH]nc1[C@H]1CC[C@]2(CCOC2)CC1 | = | 7.80 |
| CNCCN(C)Cc1c[nH]nc1[C@@H]1CCC(C)(C)[C@@H](C(=O)NCCCOC)C1 | = | 7.00 |
| CNCCN(C)Cc1c[nH]nc1[C@H]1CC[C@H](N(CCOc2ccccc2)C(=O)CC(C)C)CC1 | = | 8.06 |

The measurements presented in this section are drawn from patent US11512053B2.
